The reported numbers originate from ChEMBL document CHEMBL3988442.

Assignment: determine reported Percent Effect for the given compounds.
molecular target: Histidine--tRNA ligase (Leishmania infantum); experiment: Leishmania infantum Histidine tRNA synthetase (LdHisRS); assay type: functional; design: scale not given: in the data most compounds retested in dose-response had high values; settings: 30 µM
Screen size: about 69,000 compounds; about 420 (0.61%) showed an effect of 50% or more. The full list was thinned out, with strong results kept by preference.
Numbers only; they are read as %.

Notebook: pull reported Percent Effect for Histidine--tRNA ligase (Leishmania infantum), entry `Cc1cc(C(=O)N2C[C@@H]3CN(S(C)(=O)=O)CCO[C@@H]3C2)c(C)o1`
-1.75

Notebook: pull reported Percent Effect for Histidine--tRNA ligase (Leishmania infantum), entry `NC(=O)N1C[C@@H]2CN(C(=O)c3ccco3)C[C@@H]2C1`
15.5

Notebook: pull reported Percent Effect for Histidine--tRNA ligase (Leishmania infantum), entry `CCc1ccc2c(C3CN(CC4CCC4)C3)ncn2c1`
69.8

Notebook: pull reported Percent Effect for Histidine--tRNA ligase (Leishmania infantum), entry `O=C(c1cc(-c2ccco2)nc2c(Cl)cccc12)N1C[C@H]2CNC[C@H]2C1`
53.3

Notebook: pull reported Percent Effect for Histidine--tRNA ligase (Leishmania infantum), entry `Cc1nc(CN2C[C@@H]3CN(C(=O)NC(C)C)C[C@@H]3C2=O)cs1`
2.94

Notebook: pull reported Percent Effect for Histidine--tRNA ligase (Leishmania infantum), entry COCC1CCN(C(=O)c2cc(-c3ccco3)nc3c(Cl)cccc23)C1 (stereo unspecified)
11.7

Notebook: pull reported Percent Effect for Histidine--tRNA ligase (Leishmania infantum), entry `CCc1ccc2c(C3CN(S(C)(=O)=O)C3)ncn2c1`
12.6

Notebook: pull reported Percent Effect for Histidine--tRNA ligase (Leishmania infantum), entry `O=C(c1cc(-c2ccco2)nc2c(Cl)cccc12)N1CCS(=O)(=O)CC1`
15

Notebook: pull reported Percent Effect for Histidine--tRNA ligase (Leishmania infantum), entry `CCCN(C(=O)c1cccnc1)c1nc2c(s1)CCc1c-2cnn1C`
101

Notebook: pull reported Percent Effect for Histidine--tRNA ligase (Leishmania infantum), entry `CCn1nc2c(cc1=O)CN(Cc1nc(-c3cccnc3)no1)CC2`
14.7

Notebook: pull reported Percent Effect for Histidine--tRNA ligase (Leishmania infantum), entry `CCCN(C(=O)c1ccc(-n2ccnn2)cc1)c1cccnc1`
11.1

----------
Assignment: determine reported Percent Effect for the given molecules.
target: Histidine--tRNA ligase (Leishmania infantum) (UniProt A4I591); test: Leishmania infantum Histidine tRNA synthetase (LdHisRS); format: functional; parameters: scale not given: in the data most compounds retested in dose-response had high values; details: 30 µM
Screen size: about 69,000 compounds; about 420 (0.61%) showed an effect of 50% or more. For the sample, strong results were picked, then their nearest neighbours and some compounds at random.
Numbers only; they are read as %.

Query (molecule): `CCCN(C(=O)c1ccccn1)c1nc2c(s1)CCc1c-2cnn1C` ; field requested: Percent Effect
106

Query (molecule): `CN(C(=O)c1ccccn1)c1nc2c(s1)CCc1c-2cnn1C` ; field requested: Percent Effect
103

Query (molecule): `Cc1cnccc1-c1cnn(CCNC(=O)c2ccccn2)c1C1CC1` ; field requested: Percent Effect
4.25

Query (molecule): `COCCN(C(=O)c1ccccn1)c1nc2c(s1)CCc1c-2cnn1C` ; field requested: Percent Effect
101

Query (molecule): `CN1CCCCC12CCN(c1nncs1)CC2` ; field requested: Percent Effect
6.2

Query (molecule): `Cc1cccc2c1nc(COCC(=O)O)n2-c1cnc(N)cn1` ; field requested: Percent Effect
68.3

----------
Target: Histidine--tRNA ligase (Leishmania infantum)
Sequence (whole entry): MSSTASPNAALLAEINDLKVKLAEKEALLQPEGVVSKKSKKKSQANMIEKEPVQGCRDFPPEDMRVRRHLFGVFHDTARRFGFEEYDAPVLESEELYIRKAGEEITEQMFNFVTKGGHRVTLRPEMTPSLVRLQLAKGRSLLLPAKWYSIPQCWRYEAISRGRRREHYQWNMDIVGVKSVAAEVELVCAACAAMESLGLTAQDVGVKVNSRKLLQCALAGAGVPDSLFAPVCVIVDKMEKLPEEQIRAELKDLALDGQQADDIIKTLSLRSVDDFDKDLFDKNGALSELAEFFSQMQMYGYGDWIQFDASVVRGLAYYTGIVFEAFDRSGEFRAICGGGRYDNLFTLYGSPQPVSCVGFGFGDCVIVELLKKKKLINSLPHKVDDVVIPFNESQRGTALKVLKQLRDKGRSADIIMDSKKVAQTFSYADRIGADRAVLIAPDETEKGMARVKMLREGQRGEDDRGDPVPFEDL
Assay: Leishmania infantum Histidine tRNA synthetase (LdHisRS)
Format: functional
Set-up: scale not given: in the data most compounds retested in dose-response had high values
Conditions: 30 µM
The whole screen tested about 69,000 compounds, of which about 420 (0.61%) showed an effect of 50% or more. For the sample, strong results were picked, then their nearest neighbours and some compounds at random.
metric name: Percent Effect (%)
Numbers only; they are read as %.

Query (compound): `Cc1cccc(-c2noc(CN3CCc4nn(C)c(=O)cc4C3)n2)c1` ; field requested: Percent Effect
87.8

Query (compound): `COc1cc2c(nn1)CCN(Cc1noc(-c3ccccc3)n1)C2` ; field requested: Percent Effect
24

Query (compound): `COCCC(=O)N1CCN(CC2CC2)c2ccccc21` ; field requested: Percent Effect
26.5

Query (compound): `Cn1nc2c(cc1=O)CN(Cc1nc(-c3ccoc3)no1)CC2` ; field requested: Percent Effect
16

Query (compound): `CN(Cc1cncnc1)[C@@H]1CN(C(=O)c2ccco2)[C@@H]2CCCO[C@H]12` ; field requested: Percent Effect
17.3

Query (compound): `Cc1ccccc1-c1noc(CN2CCc3nn(C)c(=O)cc3C2)n1` ; field requested: Percent Effect
103

Query (compound): O=C(c1cc(=O)n(-c2ccccc2)[nH]1)N1CCOCC(O)C1 (stereo not drawn) ; field requested: Percent Effect
6.2

Query (compound): `Cc1ccc(-c2nc(CN3CCc4cnc(C)nc4C3)no2)cc1` ; field requested: Percent Effect
21.4

Query (compound): `CC(C)NC(=O)c1sc2ccccc2c1[C@H]1CC[C@H](CN)CC1` ; field requested: Percent Effect
8.45

Query (compound): COc1cc(F)c(CN2CCN(CC(C)C)C(=O)C2C)cc1OC (stereo not drawn) ; field requested: Percent Effect
10.8

Query (compound): COc1cccc(CN2CCN(CC(C)C)C(=O)C2C)c1O (stereo not drawn) ; field requested: Percent Effect
98.9

Query (compound): `O=C(NCCCC(=O)N1CCN(CC2CC2)c2ccccc21)C1CC1` ; field requested: Percent Effect
11.8

Query (compound): `N#Cc1cccc(CNCCC(=O)N2CCc3sccc3C2)c1` ; field requested: Percent Effect
5.38

Query (compound): `CC/N=c1/c(NC(=O)NCCOC)c(O)oc2ccccc12` ; field requested: Percent Effect
12.4

Query (compound): `Cc1ccc(-c2nc(CN3CCc4nn(C)c(=O)cc4C3)no2)cc1` ; field requested: Percent Effect
52.4

Query (compound): `Cn1nc2c(cc1=O)CN(Cc1nc(-c3ccsc3)no1)CC2` ; field requested: Percent Effect
27.6

Query (compound): `CCCn1nc2c(cc1=O)CN(Cc1nc(-c3ccoc3)no1)CC2` ; field requested: Percent Effect
2.67

Query (compound): `Cc1ccc(-c2noc(CN3CCc4nn(C)c(=O)cc4C3)n2)cc1` ; field requested: Percent Effect
70.7

Query (compound): `CN1[C@@H](C(=O)NCC2CC2)C[C@@H]2CN(Cc3ccsc3)C[C@@H]21` ; field requested: Percent Effect
11.9

Query (compound): O=C(c1cc(=O)n(-c2ccccc2)[nH]1)N1CCCC(c2ccn[nH]2)C1 (stereo not drawn) ; field requested: Percent Effect
59

Query (compound): O=C(c1cnnn1-c1ccccc1)N1CCCC(c2ccn[nH]2)C1 (stereo not drawn) ; field requested: Percent Effect
15.7

Query (compound): `COc1ccc(CNCCC(=O)N2CCc3sccc3C2)cc1O` ; field requested: Percent Effect
26.9

Query (compound): `Cc1ccccc1-c1noc(CN2CCc3cncnc3C2)n1` ; field requested: Percent Effect
-42.2

----------
Assignment: determine reported Percent Effect for the given molecules.
Target: Histidine--tRNA ligase (Leishmania infantum)
Sequence (whole entry): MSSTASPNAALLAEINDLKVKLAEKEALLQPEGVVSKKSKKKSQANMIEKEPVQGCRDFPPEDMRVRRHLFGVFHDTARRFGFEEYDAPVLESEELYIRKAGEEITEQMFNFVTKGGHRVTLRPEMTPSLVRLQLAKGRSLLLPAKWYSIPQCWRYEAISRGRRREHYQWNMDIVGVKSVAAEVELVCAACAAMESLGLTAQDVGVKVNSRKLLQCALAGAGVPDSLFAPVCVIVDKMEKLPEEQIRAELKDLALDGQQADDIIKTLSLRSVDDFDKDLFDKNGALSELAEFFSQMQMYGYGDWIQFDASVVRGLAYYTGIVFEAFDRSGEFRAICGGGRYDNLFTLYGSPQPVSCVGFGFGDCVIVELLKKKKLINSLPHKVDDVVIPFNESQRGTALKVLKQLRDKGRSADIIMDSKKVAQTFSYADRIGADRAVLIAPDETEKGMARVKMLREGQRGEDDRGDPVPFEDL
Assay: Leishmania infantum Histidine tRNA synthetase (LdHisRS)
Assay type: functional
Parameters: scale not given: in the data most compounds retested in dose-response had high values
Settings: 30 µM
Among all 69,000 compounds or so, about 420 (0.61%) showed an effect of 50% or more. The list comes from a sample in which strong results are over-represented; it also holds close analogues and randomly drawn compounds.

Query (molecule): CN(C)c1ncc(-c2c(-c3ccccc3)ncn2C(CO)C(=O)O)cn1 (configuration not stated) ; field requested: Percent Effect
72.8%

Query (molecule): `CC(C)CC(=O)N1CC[C@H]2N(C)CC[C@@]2(C(=O)Nc2cccnc2)CC1` ; field requested: Percent Effect
11.7%

Query (molecule): `Cc1ccc(CN2C[C@H](N(C)Cc3cncnc3)[C@H]3OCCC[C@H]32)o1` ; field requested: Percent Effect
15.4%

Query (molecule): `Clc1cc(NCc2ccncc2)nc2[nH]ccc12` ; field requested: Percent Effect
71.1%

Query (molecule): `CC(=O)N1[C@H](Cn2cncn2)C[C@@H]2CN(Cc3cccnc3)CC[C@@H]21` ; field requested: Percent Effect
13.9%

Query (molecule): `Clc1cc(NCc2ncc[nH]2)nc2[nH]ccc12` ; field requested: Percent Effect
10.8%

Query (molecule): `O=C(c1ccc[nH]1)N1C[C@H]2CC[C@@H]1CN(c1ncccn1)C2` ; field requested: Percent Effect
21.7%

Query (molecule): `Cc1c(-c2c(-c3ccccc3)ncn2[C@H](CO)C(=O)O)cnn1C` ; field requested: Percent Effect
7.85%

Query (molecule): `O=S(=O)(C1CC1)N1CCO[C@H]2[C@H](OCCN3CCCC3)CC[C@@H]21` ; field requested: Percent Effect
15.1%

Query (molecule): `COCCN1CCO[C@H]2CN(Cc3cc[nH]n3)C[C@H]21` ; field requested: Percent Effect
23.8%

Query (molecule): `O=C(C1CCCC1)N1C[C@@H]2CCN(c3cccnc3)C[C@@H]2C1` ; field requested: Percent Effect
14.7%

Query (molecule): `Cn1cc(C(=O)N[C@@H]2CN(Cc3cccnc3)[C@@H]3CCCO[C@@H]32)cn1` ; field requested: Percent Effect
22.9%

Query (molecule): `CS(=O)(=O)N1C[C@@H]2CC[C@H](C1)N(C(=O)Cn1ccc3ccccc31)C2` ; field requested: Percent Effect
11.6%

Query (molecule): `COC[C@@]12CCO[C@@H]1CCN(C(=O)CCc1ccccc1Cl)C2` ; field requested: Percent Effect
12.9%

Query (molecule): `COc1cc(CN2C[C@@H]3CNC(=O)[C@H](C)[C@@H]3C2)cc(OC)c1` ; field requested: Percent Effect
21.1%

Query (molecule): `CN(C)C(=O)N1C[C@@H]2CC[C@H](C1)N(Cc1ccc3nsnc3c1)C2` ; field requested: Percent Effect
24%

Query (molecule): `O=C1[C@H]2CN(CC3CC3)C[C@H]2CN1Cc1cccc(F)c1` ; field requested: Percent Effect
-1.5%

Query (molecule): O=C1CCCC2=C1C(c1ccc(F)cc1F)Nc1nonc1N2 (configuration not stated) ; field requested: Percent Effect
14.6%

Query (molecule): `O=C(c1ccc(F)cc1)N1C[C@@H]2CCN(c3cccnc3)C[C@@H]2C1` ; field requested: Percent Effect
20.6%

Query (molecule): `CS(=O)(=O)NC[C@]12COC[C@H]1CN(C(=O)C1CC=CC1)C2` ; field requested: Percent Effect
-44.5%

Query (molecule): `Cn1cc(CN2CCC[C@]3(C(=O)O)CN(c4ncccn4)C[C@@H]3C2)cn1` ; field requested: Percent Effect
27.8%

Query (molecule): `Cn1ccnc1Sc1ccc(N)cn1` ; field requested: Percent Effect
91%
